Source: patent US20090221680

# test_target: thrombin (alpha-thrombin) (Homo sapiens) (UniProt P00734+P00734)
# procedure_summary: filter
# settings: 2'-OMe inosine at 15, rest DNA [15]
readout_label: Kd

1. ACTGCCTAGGTTGGGTAGGGTGGTGGCAGT [ARC2692]; 1.84 nM

---

# test_target: thrombin (alpha-thrombin) (Homo sapiens) (UniProt P00734+P00734)
# procedure_summary: filter
# settings: 2'-OMe inosine at 26, rest DNA [26 = 2'-OMe inosine (written as parent base G); rest DNA]
pKd: −log10 of the molar value.
readout_label: pKd

1. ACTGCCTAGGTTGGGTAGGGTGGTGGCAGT [ARC2699]; 9.89

---

# test_target: thrombin (alpha-thrombin) (Homo sapiens) (UniProt P00734+P00734)
# procedure_summary: filter
# settings: deoxyinosine at 4 [deoxyinosine at 4 (parent base G)]
readout_label: Kd (nM)

1. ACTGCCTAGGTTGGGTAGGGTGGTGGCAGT [ARC2673]; 0.207

---

# test_target: thrombin (alpha-thrombin) (Homo sapiens) (UniProt P00734+P00734)
# procedure_summary: filter
# settings: 2'-OMe inosine at 14, rest DNA [14]
readout_label: Kd (nM)

1) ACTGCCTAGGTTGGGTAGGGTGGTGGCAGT [ARC2691]; 2.28

---

# test_target: thrombin (alpha-thrombin) (Homo sapiens) (UniProt P00734+P00734)
# procedure_summary: filter
# settings: 2'-OMe inosine at 4, rest DNA [4]
pKd: −log10 of the molar value.
readout_label: pKd

1) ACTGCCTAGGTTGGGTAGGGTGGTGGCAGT [ARC2687]; 9.66

---

# test_target: thrombin (alpha-thrombin) (Homo sapiens) (UniProt P00734+P00734)
# procedure_summary: filter
# settings: deoxyinosine at 29 [29]
readout_label: Kd (nM)

1) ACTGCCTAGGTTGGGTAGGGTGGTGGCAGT [ARC2686]; 0.189

---

# test_target: thrombin (alpha-thrombin) (Homo sapiens) (UniProt P00734+P00734)
# procedure_summary: filter
# settings: deoxyinosine at 18 [18]
readout_label: Kd (nM)

1. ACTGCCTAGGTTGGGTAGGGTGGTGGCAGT [ARC2679]; 0.355

---

# test_target: thrombin (alpha-thrombin) (Homo sapiens) (UniProt P00734+P00734)
# procedure_summary: filter
# settings: deoxyinosine at 9 [9]
readout_label: Kd (nM)

1. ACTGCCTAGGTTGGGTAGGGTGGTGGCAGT [ARC2674]; 0.452

---

# test_target: thrombin (alpha-thrombin) (Homo sapiens) (UniProt P00734+P00734)
# procedure_summary: filter
# settings: deoxyinosine at 10 [10]
pKd: −log10 of the molar value.
readout_label: pKd

1. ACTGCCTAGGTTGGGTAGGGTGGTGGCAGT [ARC2675]; 8.69

---

# test_target: thrombin (alpha-thrombin) (Homo sapiens) (UniProt P00734+P00734)
# procedure_summary: filter
# settings: deoxyinosine at 19 [19]
pKd: −log10 of the molar value.
readout_label: pKd

1) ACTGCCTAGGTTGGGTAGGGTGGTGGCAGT [ARC2680]; 9.62

---

# test_target: thrombin (alpha-thrombin) (Homo sapiens) (UniProt P00734+P00734)
# procedure_summary: filter
# settings: deoxyinosine at 22 [22]
pKd: −log10 of the molar value.
readout_label: pKd

1) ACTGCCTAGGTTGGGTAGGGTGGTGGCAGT [ARC2682]; 8.89

---

# test_target: thrombin (alpha-thrombin) (Homo sapiens) (UniProt P00734+P00734)
# procedure_summary: filter
# settings: deoxyinosine at 13 [13]
readout_label: Kd (pM)

1) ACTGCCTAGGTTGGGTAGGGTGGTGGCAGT [ARC2676]; 698

---

# test_target: thrombin (alpha-thrombin) (Homo sapiens) (UniProt P00734+P00734)
# procedure_summary: filter
# settings: deoxyinosine at 25 [25]
readout_label: Kd (pM)

1) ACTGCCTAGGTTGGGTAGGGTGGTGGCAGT [ARC2684]; 188

---

# test_target: thrombin (alpha-thrombin) (Homo sapiens) (UniProt P00734+P00734)
# procedure_summary: filter
# settings: deoxyinosine at 14 [14]
pKd: −log10 of the molar value.
readout_label: pKd

1) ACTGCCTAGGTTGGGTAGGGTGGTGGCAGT [ARC2677]; 9.70
